Biological target: UniProt:P08183
Experiment: Inhibition of human Pgp in anthracycline-resistant K562 cells assessed as drug level causing half maximal increase in nuclear concentration of pirarubicin
Settings: read-out: Activity
Value Kind: IC50

# example entries with known answers
COc1cc(C(=O)OC2CCC(N(C)C3CCC(OC(=O)c4c5ccccc5cc5ccccc45)CC3)CC2)cc(OC)c1OC (stereo in doubt)    180 nM
COc1cc(C(=O)OC2CCC(N(C)C3CCC(OC(=O)c4c5ccccc5cc5ccccc45)CC3)CC2)cc(OC)c1OC (mixture of isomers; trans)    160 nM
COc1cc(/C=C/C(=O)OC2CCC(N(C)C3CCC(OC(=O)c4cc(OC)c(OC)c(OC)c4)CC3)CC2)cc(OC)c1OC (cis isomer)    30 nM

# next compound below
Quick note, IC50 for "COc1cc(C(=O)OCCCN(C)CCCOC(=O)c2c3ccccc3cc3ccccc23)cc(OC)c1OC" landed at 280 nM

====

Each entry below carries its recorded Activity.
Target: ATP-dependent translocase ABCB1 (Homo sapiens, UniProt P08183)
Sequence (P08183 whole entry): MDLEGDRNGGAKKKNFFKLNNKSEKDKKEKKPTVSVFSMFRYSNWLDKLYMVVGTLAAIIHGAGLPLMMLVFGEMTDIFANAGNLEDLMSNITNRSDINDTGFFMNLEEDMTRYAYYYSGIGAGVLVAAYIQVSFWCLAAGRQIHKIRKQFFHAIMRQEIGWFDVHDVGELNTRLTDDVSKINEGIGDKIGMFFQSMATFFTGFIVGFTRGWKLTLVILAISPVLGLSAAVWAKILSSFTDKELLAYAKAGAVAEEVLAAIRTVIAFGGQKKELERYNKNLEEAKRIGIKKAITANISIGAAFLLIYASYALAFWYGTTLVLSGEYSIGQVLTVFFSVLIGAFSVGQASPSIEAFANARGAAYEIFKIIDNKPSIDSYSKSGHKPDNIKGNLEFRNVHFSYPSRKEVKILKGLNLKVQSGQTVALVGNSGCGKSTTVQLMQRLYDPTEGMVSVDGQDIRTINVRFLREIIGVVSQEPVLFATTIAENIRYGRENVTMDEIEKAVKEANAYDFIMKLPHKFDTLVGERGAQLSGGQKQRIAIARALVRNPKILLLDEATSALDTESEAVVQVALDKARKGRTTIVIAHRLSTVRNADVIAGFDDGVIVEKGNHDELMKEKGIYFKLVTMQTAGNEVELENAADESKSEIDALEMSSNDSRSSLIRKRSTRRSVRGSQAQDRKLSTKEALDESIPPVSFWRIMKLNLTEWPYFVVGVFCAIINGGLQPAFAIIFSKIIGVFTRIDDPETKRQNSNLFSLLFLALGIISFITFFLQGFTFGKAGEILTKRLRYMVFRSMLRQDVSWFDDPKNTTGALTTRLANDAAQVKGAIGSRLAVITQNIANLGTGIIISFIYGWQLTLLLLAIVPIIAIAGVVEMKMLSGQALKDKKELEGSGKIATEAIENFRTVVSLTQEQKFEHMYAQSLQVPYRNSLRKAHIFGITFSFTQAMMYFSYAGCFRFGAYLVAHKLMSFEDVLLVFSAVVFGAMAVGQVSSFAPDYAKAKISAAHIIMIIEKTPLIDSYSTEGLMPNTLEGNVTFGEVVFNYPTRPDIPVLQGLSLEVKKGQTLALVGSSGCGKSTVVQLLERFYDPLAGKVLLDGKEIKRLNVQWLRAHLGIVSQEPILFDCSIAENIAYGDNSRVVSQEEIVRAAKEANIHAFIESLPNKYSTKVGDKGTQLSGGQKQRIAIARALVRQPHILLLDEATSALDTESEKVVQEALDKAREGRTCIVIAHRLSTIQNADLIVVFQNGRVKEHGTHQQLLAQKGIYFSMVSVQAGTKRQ
Assay: Inhibition of human Pgp in anthracycline-resistant K562 cells assessed as drug level causing maximal increase in nuclear concentration of pirarubicin relative to control
Format: cell-based

Guide cases for Activity, answers given:
COc1cc(/C=C/C(=O)OC2CCC(N(C)C3CCC(OC(=O)c4cc(OC)c(OC)c(OC)c4)CC3)CC2)cc(OC)c1OC (cis isomer)    0.8
COc1cc(/C=C/C(=O)OCCCN(C)CCCOC(=O)c2cc(OC)c(OC)c(OC)c2)cc(OC)c1OC    0.9
COc1cc(C(=O)OCCCN(C)CCCOC(=O)c2c3ccccc3cc3ccccc23)cc(OC)c1OC    0.71

Please look at the following compound next.
Observed Activity, ATP-dependent translocase ABCB1 (Homo sapiens, UniProt P08183), COc1cc(C(=O)OC2CCC(N(C)C3CCC(OC(=O)c4c5ccccc5cc5ccccc45)CC3)CC2)cc(OC)c1OC (stereo in doubt) : 0.79
